# Lookup of reported viability at 60 min, 0.2 % w/v keyed by entry
Test: MTT cell viability assay on Calu-3 cells after exposure to test solutions
Assay type: cell-based, Human
Details: human, Calu-3 cells, 0.2% w/v test solution, 60 min incubation, MTT, relative to negative control, n = 4; read-out: Calu-3 %Viability ± SD
Record the value in %, omitting the unit from your answer.

Example results:
In [3]: df
Out[3]:
                       molecule                    assay_metric  numeric_result
0                  CC(=O)CC(C)C  viability at 60 min, 0.2 % w/v            73.2
1                  Nc1ccc(F)cc1  viability at 60 min, 0.2 % w/v             115
2                     Cc1ccccc1  viability at 60 min, 0.2 % w/v            85.7
3                      OCC(O)CO  viability at 60 min, 0.2 % w/v            85.6
4  COCC(O)CO (stereo not shown)  viability at 60 min, 0.2 % w/v            92.6

Q: Quick one: viability at 60 min, 0.2 % w/v for CCCCCCCCCCCCCCCC[n+]1ccccc1 [Cetylpyridinium bromide] ?
Result: 8.1

Q: Return reported viability at 60 min, 0.2 % w/v; argument: CCCC(C)CO (stereo not shown)
Result: 95.3

The reported numbers originate from paper PMC4085599.
